Please provide measured MLR assay (EC50) for the entries that follow.
targetEntity: human CD28 (human, UniProt P10747 19-220)
assayProcedure: cell-based or functional assay
Answers are plain numbers, in nM.

Check out these entries, answers already filled in.
1h-79-1512 (other) VL: DIQMTQSPSSLSASVGDRVTITCRASQPIGHSLGWYQQKPGKAPKLLIYWASVLLHGVPSRFSGSGSGTDFTLTISSLQPEDFATYYCQQMLRTPFTFGQGTKVEIKR
9
1h-99-2114 (other) VH: EVQLLESGGGLVQPGGSLRLSCAASGFTFKDKNMSWARQAPGKGLEWVSWIEAIGVQTFYADSVKGRFTISRDNSKNTLYLQMNSLRAEDTAVYYCAKSPFGPLYGFDYRGQGTLVTVSS
2
1h-35 (other) VL: DIQMTQSPSSLSASVGDRVTITCRASQYIGSALSWYQQKPGKAPKLLIYRASNLQSGVPSRFSGSGSGTDFTLTISSLQPEDFATYYCQQLAIRPFTFGQGTKVEIKR
2000
1h-239-857 (other) VL: DIQMTQSPSSLSASVGDRVTITCRASQSIYPFLEWYQQKPGKAPKLLIYFTSRLAAGVPSRFSGSGSGTDFTLTISSLQPEDFATYYCLQNVTNPAAFSQGTKVEIKR
1
1h-239-869 (other) VL: DIQMTQSPSSLSASVGDRVTITCRASQSIYPFLEWYQQKPGKAPKLLIYFTSRLQSGVPSRFSGSGSGTDFTLTISSLQPEDFATYYCLQNVQMPATFSQGTKVEIKR
2
1h-79-807 (other) VL: DIQMTQSPSSLSASVGDRVTITCRASQPIGHTLGWYQQKPGKAPKLLIYWASDLIRGVPSRFSGSGSGTDFTLTISSLQPEDFATYYCQQMLRTPFMFGQGTKVEIKR
53

Go through the list and state MLR assay (EC50) for each entry.
1. 1h-99-217 (other) VH: EVQLLESGGGLVQPGGSLRLSCAASGFTFSRSNMSWGRQAPGKGLEWVSWIEDTGTQTFYADSVKGRFTISRDNSKNTLYLQMNSLRAEDTAVYYCAKSPFGPLYGFDYRGQGTLVTVSS
2. 1h-239-832 (other) VL: DIQMTQSPSSLSASVGDRVTITCRASQSIYPFLEWYQQKPGKAPKLLIYFTSYLREGVPSRFSGSGSGTDFTLTISSLQPEDFATYYCLQNVTNPATFSQGTKVEIKR

1: 15; 2: 11

# credit: patent US20130109846A1
